- measuredOn: GluA2/3 (Homo sapiens, UniProt P42262+P42263)
- Construct: expressed in transfected cells; host or cells: HEK293T
- Sequence (P42262 25-883 isoform P42262-2 limits assumed): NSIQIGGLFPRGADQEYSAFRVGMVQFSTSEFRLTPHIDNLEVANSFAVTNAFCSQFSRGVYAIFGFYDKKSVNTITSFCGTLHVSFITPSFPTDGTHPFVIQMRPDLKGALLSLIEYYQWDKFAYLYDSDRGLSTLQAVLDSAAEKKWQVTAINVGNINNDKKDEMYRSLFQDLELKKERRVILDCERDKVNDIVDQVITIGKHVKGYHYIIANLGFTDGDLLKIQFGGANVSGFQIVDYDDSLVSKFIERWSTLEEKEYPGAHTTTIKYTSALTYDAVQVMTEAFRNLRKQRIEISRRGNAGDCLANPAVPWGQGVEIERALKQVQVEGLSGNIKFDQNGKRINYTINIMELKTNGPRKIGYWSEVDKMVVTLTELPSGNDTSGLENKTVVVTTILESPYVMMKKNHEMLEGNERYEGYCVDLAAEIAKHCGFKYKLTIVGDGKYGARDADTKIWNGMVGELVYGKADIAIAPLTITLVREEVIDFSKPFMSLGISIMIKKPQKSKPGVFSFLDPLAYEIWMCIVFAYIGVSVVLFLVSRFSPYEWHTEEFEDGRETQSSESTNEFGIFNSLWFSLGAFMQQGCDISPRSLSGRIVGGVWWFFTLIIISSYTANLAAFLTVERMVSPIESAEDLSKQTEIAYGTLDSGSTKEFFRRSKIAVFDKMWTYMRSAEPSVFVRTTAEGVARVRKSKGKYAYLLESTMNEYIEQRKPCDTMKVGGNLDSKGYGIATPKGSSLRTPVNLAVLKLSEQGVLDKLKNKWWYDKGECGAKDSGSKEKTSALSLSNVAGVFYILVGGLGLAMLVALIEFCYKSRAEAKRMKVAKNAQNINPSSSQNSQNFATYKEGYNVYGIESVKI
- Sequence (P42263 29-894 isoform P42263-2 limits assumed): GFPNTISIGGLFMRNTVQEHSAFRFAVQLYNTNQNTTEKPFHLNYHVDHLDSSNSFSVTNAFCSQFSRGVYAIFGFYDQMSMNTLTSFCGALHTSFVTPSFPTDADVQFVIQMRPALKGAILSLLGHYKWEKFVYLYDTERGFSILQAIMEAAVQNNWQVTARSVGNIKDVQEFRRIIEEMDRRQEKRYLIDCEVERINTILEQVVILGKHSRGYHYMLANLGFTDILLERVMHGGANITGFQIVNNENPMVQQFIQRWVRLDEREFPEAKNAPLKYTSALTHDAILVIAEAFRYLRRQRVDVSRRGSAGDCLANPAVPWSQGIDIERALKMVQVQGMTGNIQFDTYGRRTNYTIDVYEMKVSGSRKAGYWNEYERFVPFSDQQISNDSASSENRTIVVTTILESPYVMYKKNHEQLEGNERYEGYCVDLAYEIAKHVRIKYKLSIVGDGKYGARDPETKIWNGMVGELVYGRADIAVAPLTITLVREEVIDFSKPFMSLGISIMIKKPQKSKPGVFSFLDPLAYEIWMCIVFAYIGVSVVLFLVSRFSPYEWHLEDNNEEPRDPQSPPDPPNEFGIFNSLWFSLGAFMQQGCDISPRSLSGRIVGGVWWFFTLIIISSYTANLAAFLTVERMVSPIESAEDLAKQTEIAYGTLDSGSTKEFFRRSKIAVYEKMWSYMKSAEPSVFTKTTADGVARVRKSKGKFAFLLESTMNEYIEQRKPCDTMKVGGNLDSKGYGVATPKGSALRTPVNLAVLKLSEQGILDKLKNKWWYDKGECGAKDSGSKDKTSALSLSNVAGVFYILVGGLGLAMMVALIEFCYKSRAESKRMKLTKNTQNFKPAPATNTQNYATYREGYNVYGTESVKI
- runDescription: Whole-cell patch-clamp recordings of heteromeric GluA2/3 AMPAR in transfected HEK293T cells
- Assay type: cell-based
- reportedConditions: 10 mM glutamate alone after 20 s wash following the TC compound, n = 10
measuredProperty: Amplitude, applying glutamate alone after TC compound (pA)
Please reply with the bare figure in pA and do not write the unit itself.

Exam item: Report Amplitude, applying glutamate alone after TC compound for COc1ccc(-c2nc(C(=O)Nc3ccccc3)cs2)cc1 [TC-3] please.
Marked response: 456

Exam item: Report Amplitude, applying glutamate alone after TC compound for COc1ccc(-c2nc(C(=O)Nc3ccc(C(C)(C)C)cc3)cs2)cc1 [TC-4] please.
Marked response: 460

Exam item: Report Amplitude, applying glutamate alone after TC compound for COc1ccc(-c2nc(C(=O)Nc3cc(OC)c(OC)c(OC)c3)cs2)cc1 [TC-2] please.
Marked response: 484

Exam item: Report Amplitude, applying glutamate alone after TC compound for COc1ccc(-c2nc(C(=O)Nc3cc(OC)ccc3OC)cs2)cc1 [TC-5] please.
Marked response: 443

Exam item: Report Amplitude, applying glutamate alone after TC compound for COc1ccc(-c2nc(C(=O)Nc3ccc(OC)c(OC)c3)cs2)cc1 [TC-1] please.
Marked response: 491
